Listed here are molecules together with their documented log10 IC50.
Tested on: human V2 receptor (Homo sapiens)
Sequence (P30518 whole entry): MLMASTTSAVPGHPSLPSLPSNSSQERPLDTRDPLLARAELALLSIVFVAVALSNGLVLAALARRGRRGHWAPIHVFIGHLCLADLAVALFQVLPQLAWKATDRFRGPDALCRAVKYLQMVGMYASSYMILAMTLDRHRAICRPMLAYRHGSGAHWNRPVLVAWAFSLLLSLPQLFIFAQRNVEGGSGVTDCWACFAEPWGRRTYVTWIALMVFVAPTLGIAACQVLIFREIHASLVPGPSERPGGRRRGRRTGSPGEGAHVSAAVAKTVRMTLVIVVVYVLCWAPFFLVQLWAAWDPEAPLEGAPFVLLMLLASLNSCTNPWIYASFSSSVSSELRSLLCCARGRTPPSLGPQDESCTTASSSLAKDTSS
Protocol notes: Cellular in vitro assay for vasopressin receptor activity, V2 cell line (CRE-luciferase)
Stated conditions: CHO cell line transfected with human V2 receptor; agonist [Arg8]-vasopressin at EC50 concentration, 3 hours; read-out: IC50hV2
Scale: decimal log of IC50, IC50 in nM.

{"Molecule": "Cc1cccc(C)c1-n1nc(Cn2nc(-c3ccc(Cl)cc3)n(C[C@H](O)C(F)(F)F)c2=O)nc1C(C)(F)F", "log10 IC50": 0.63}
{"Molecule": "CC(F)c1nc(Cn2nc(-c3ccc(Cl)cc3)n(C[C@H](O)C(F)(F)F)c2=O)nn1-c1c(F)cccc1F (mixture of isomers)", "log10 IC50": 0.47}
{"Molecule": "Cc1ccccc1-n1nc(Cn2nc(-c3ccc(Cl)cc3)n(C[C@H](O)C(F)(F)F)c2=O)nc1C(C)F (single isomer, unassigned) [Example 35]", "log10 IC50": -0.77}

From here, focus on the item given below.
Query: // Input: CCc1ccccc1-n1nc(Cn2nc(-c3ccc(Cl)cc3)n(C[C@H](O)C(F)(F)F)c2=O)nc1C(C)F (single isomer, unassigned) [Example 30] . Output its log10 IC50 only.
Response: 0.28

Data credit: patent US10525041B2
